Settings: bacteroides intestinalis, 12 h, 2 µM
Description: The drug is tested on Bacteroides intestinalis strain: DSM17393 for biotransformation. The drug concentrations were measured before and after a 12-h incubation by liquid-chromatography-coupled mass spectrometry (LC–MS)
MEASURED ENDPOINT: Bacterial Biotransformation

1. CCN(CC)CC#CCOC(=O)C(O)(c1ccccc1)C1CCCCC1.Cl (stereo not drawn) [OXYBUTYNIN CHLORIDE]; Compound NOT metabolized
2. CCCC(=O)Nc1ccc(OCC(O)CNC(C)C)c(C(C)=O)c1 (stereo not drawn); Compound NOT metabolized
3. COc1ccc(Cc2nccc3cc(OC)c(OC)cc23)cc1OC; Compound NOT metabolized
4. C#C[C@]1(OC(C)=O)CC[C@H]2[C@@H]3CCC4=CC(=O)CC[C@@H]4[C@H]3CC[C@@]21C [NORETHINDRONE ACETATE]; Compound metabolized
5. CN1CCc2c(c3ccccc3n2Cc2ccccc2)C1.CN1CCc2c(c3ccccc3n2Cc2ccccc2)C1.O=S(=O)(O)c1cccc2c(S(=O)(=O)O)cccc12; Compound NOT metabolized

**Query** For the compound shown here, CCN(C)C(=O)Oc1cccc([C@H](C)N(C)C)c1.O=C(O)C(O)C(O)C(=O)O [RIVASTIGMINE TARTRATE] , give the reported Bacterial Biotransformation.
**Result** Compound NOT metabolized

**Query** Queued: CC#C[C@]1(O)CC[C@H]2[C@@H]3CCC4=CC(=O)CCC4=C3[C@@H](c3ccc(N(C)C)cc3)C[C@@]21C
**Result** Compound NOT metabolized

**Query** Okay, and CCOC(=O)[C@H](CCc1ccccc1)N[C@@H](C)C(=O)N1Cc2ccccc2C[C@H]1C(=O)O ?
**Result** Compound metabolized

**Query** Quick one: CC(=O)O[C@H]1C(=O)[C@@]2(C)[C@H]([C@H](OC(=O)c3ccccc3)[C@]3(O)C[C@H](OC(=O)[C@H](O)[C@@H](NC(=O)c4ccccc4)c4ccccc4)C(C)=C1C3(C)C)[C@]1(OC(C)=O)CO[C@@H]1C[C@@H]2O
**Result** Compound NOT metabolized

**Query** Then this compound: C#C[C@]1(OC(C)=O)CC[C@H]2[C@@H]3CCC4=C/C(=N/O)CC[C@@H]4[C@H]3CC[C@@]21CC [NORGESTIMATE]
**Result** Compound NOT metabolized

**Query** Can you check O=c1[nH]c2ccccc2n1C1CCN(CCCC(c2ccc(F)cc2)c2ccc(F)cc2)CC1 [PIMOZIDE] next?
**Result** Compound NOT metabolized

**Query** Repeat with C=CC[C@@H]1/C=C(\C)C[C@H](C)C[C@H](OC)[C@H]2O[C@@](O)(C(=O)C(=O)N3CCCC[C@H]3C(=O)O[C@H](/C(C)=C/[C@@H]3CC[C@@H](O)[C@H](OC)C3)[C@H](C)[C@@H](O)CC1=O)[C@H](C)C[C@@H]2OC.O
**Result** Compound metabolized

**Query** Next compound: CCCCCCOC(=O)/N=C(/N)c1ccc(NCc2nc3cc(C(=O)N(CCC(=O)OCC)c4ccccn4)ccc3n2C)cc1.CS(=O)(=O)O [DABIGATRAN ETEXILATE MESYLATE]
**Result** Compound NOT metabolized

**Query** Moving on to OCCN(CCO)c1nc(N2CCCCC2)c2nc(N(CCO)CCO)nc(N3CCCCC3)c2n1
**Result** Compound NOT metabolized

----------
Experiment: The drug is tested on Enterococcus faecalis strain: V583 for biotransformation. The drug concentrations were measured before and after a 12-h incubation by liquid-chromatography-coupled mass spectrometry (LC–MS)
Conditions: 2 µM
MEASURED ENDPOINT: Bacterial Biotransformation

Recorded Bacterial Biotransformation, per entry:
1) CO[C@]12C[C@@H](COC(=O)c3cncc(Br)c3)CN(C)[C@@H]1Cc1cn(C)c3cccc2c13 [NICERGOLINE]; Compound NOT metabolized
2) OC(c1cc(C(F)(F)F)nc2c(C(F)(F)F)cccc12)C1CCCCN1 (stereo not drawn) [MEFLOQUINE]; Compound NOT metabolized
3) COc1ccnc(C[S+]([O-])c2nc3ccc(OC(F)F)cc3[nH]2)c1OC (stereo not drawn) [PANTOPRAZOLE]; Compound metabolized
4) CCCCC(=O)O[C@]1(C(=O)CO)[C@@H](C)C[C@H]2[C@@H]3CCC4=CC(=O)C=C[C@]4(C)[C@@]3(F)[C@@H](O)C[C@@]21C [BETAMETHASONE VALERATE]; Compound NOT metabolized
5) CC1Cc2ccccc2N1NC(=O)c1ccc(Cl)c(S(N)(=O)=O)c1 (stereo not drawn) [INDAPAMIDE]; Compound NOT metabolized
6) C[C@@H]1CC[C@H]2[C@@H](C)C(=O)O[C@@H]3O[C@@]4(C)CC[C@@H]1[C@]32OO4 [ARTEMISININ]; Compound metabolized
7) CCN(CC)C(=O)C1(c2ccccc2)CC1CN (stereo not drawn); Compound NOT metabolized

API: the following record is the query input.
**Query** Param item = CN(C)C(=O)Oc1cc(OC(=O)N(C)C)cc(C(O)CNC(C)(C)C)c1 (stereo not drawn) [BAMBUTEROL] ; retrieve measured Bacterial Biotransformation.
**Result** Compound NOT metabolized
